Sourced from the supplement of paper PMC7125110

Can you tell me log10 kcat for the items I'm about to list?
B1: glmS ribozyme (parent)
chain: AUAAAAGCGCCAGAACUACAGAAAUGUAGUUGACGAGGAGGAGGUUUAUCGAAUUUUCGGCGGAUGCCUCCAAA

- Variants of: B1
- PROTOCOL: kcat; higher = faster cleavage; RNA array
- CONDITION DETAILS: with glucosamine-6-phosphate
Variants at the floor of the assay were thinned out.
On a log10 scale: recorded kcat, unit s⁻¹.

-- ask Report measured log10 kcat; entry is C58U C71U
-- reply -4.06

-- ask Report measured log10 kcat; entry is U46A G66A
-- reply -3.10

-- ask Report measured log10 kcat; entry is G66A C67G
-- reply -2.38

-- ask Report measured log10 kcat; entry is A6U U54C
-- reply -3.58

-- ask Report measured log10 kcat; entry is G41C A42G
-- reply -3.77

-- ask Report measured log10 kcat; entry is A36G A64G
-- reply -4.69

-- ask Report measured log10 kcat; entry is C10U A12C
-- reply -4.23

-- ask Report measured log10 kcat; entry is A48U C50G G59U G66U
-- reply -4.82

-- ask Report measured log10 kcat; entry is C11U A14U
-- reply -2.87

-- ask Report measured log10 kcat; entry is U56A C58G
-- reply -3.73

-- ask Report measured log10 kcat; entry is U45A U47A
-- reply -1.64

-- ask Report measured log10 kcat; entry is G29C U69C
-- reply -3.99

-- ask Report measured log10 kcat; entry is A6G A15C
-- reply -4.12

-- ask Report measured log10 kcat; entry is A14G C50U
-- reply -3.64

-- ask Report measured log10 kcat; entry is U56A C67A
-- reply -2.08

-- ask Report measured log10 kcat; entry is G13A G29A
-- reply -3.61

-- ask Report measured log10 kcat; entry is U30G C67A C70U
-- reply -3.39

-- ask Report measured log10 kcat; entry is A53C C70G
-- reply -4.09

-- ask Report measured log10 kcat; entry is U55C U65G
-- reply -2.44

-- ask Report measured log10 kcat; entry is G44C U54G
-- reply -3.91

-- ask Report measured log10 kcat; entry is G37C A53U U69G
-- reply -4.43

-- ask Report measured log10 kcat; entry is U45A U54A
-- reply -0.94

-- ask Report measured log10 kcat; entry is G29A C71G
-- reply -3.72

-- ask Report measured log10 kcat; entry is A6C C71U
-- reply -4.02

-- ask Report measured log10 kcat; entry is A53C C58A
-- reply -4.30

-- ask Report measured log10 kcat; entry is U47G C61G
-- reply -4.96

-- ask Report measured log10 kcat; entry is A39U G40U
-- reply -2.63

-- ask Report measured log10 kcat; entry is A39G G40U
-- reply -2.66

-- ask Report measured log10 kcat; entry is A15U G37C C70G
-- reply -4.56

-- ask Report measured log10 kcat; entry is A53U C68A
-- reply -4.27

-- ask Report measured log10 kcat; entry is U69A C71G
-- reply -4.42

-- ask Report measured log10 kcat; entry is A39U A53C
-- reply -2.28

-- ask Report measured log10 kcat; entry is G40A C58U
-- reply -4.34

-- ask Report measured log10 kcat; entry is A15G C67A C71U
-- reply -3.06

-- ask Report measured log10 kcat; entry is G29C G66U
-- reply -4.17

-- ask Report measured log10 kcat; entry is C50G U65G
-- reply -4.24

-- ask Report measured log10 kcat; entry is U45G C67A
-- reply -2.07

-- ask Report measured log10 kcat; entry is U56G C58U
-- reply -3.83

-- ask Report measured log10 kcat; entry is G40A G41U
-- reply -4.14

-- ask Report measured log10 kcat; entry is U31C U45C
-- reply -3.30

-- ask Report measured log10 kcat; entry is G41U A53C
-- reply -3.78

-- ask Report measured log10 kcat; entry is A52U U57A
-- reply -2.45

-- ask Report measured log10 kcat; entry is G40A U65A
-- reply -2.88

-- ask Report measured log10 kcat; entry is A15C U54A
-- reply -2.18

-- ask Report measured log10 kcat; entry is G32U G37A
-- reply -4.36

-- ask Report measured log10 kcat; entry is A12G G66C
-- reply -4.07

-- ask Report measured log10 kcat; entry is A53U U69G
-- reply -4.17

-- ask Report measured log10 kcat; entry is G44C U46A
-- reply -4.11

-- ask Report measured log10 kcat; entry is U31A U69G
-- reply -4.28

-- ask Report measured log10 kcat; entry is `G13C`
-- reply -3.72

-- ask Report measured log10 kcat; entry is C58A U69C
-- reply -3.95

-- ask Report measured log10 kcat; entry is `A15G`
-- reply -1.19

-- ask Report measured log10 kcat; entry is A42U U55A
-- reply -3.67

-- ask Report measured log10 kcat; entry is G7A U69A
-- reply -4.81

-- ask Report measured log10 kcat; entry is A12G A15C
-- reply -3.29

-- ask Report measured log10 kcat; entry is U45A U56G
-- reply -1.21

-- ask Report measured log10 kcat; entry is A14U C67A
-- reply -2.82

-- ask Report measured log10 kcat; entry is C16G U45C
-- reply -3.52

-- ask Report measured log10 kcat; entry is G29A U30C
-- reply -4.49

-- ask Report measured log10 kcat; entry is A6C G29A U57G U69G
-- reply -4.51

-- ask Report measured log10 kcat; entry is C16G C71G
-- reply -3.88

-- ask Report measured log10 kcat; entry is C11U G66A
-- reply -3.04
